Data provenance: PubChem BioAssay

- System: PRMT1 (protein arginine N-methyltransferase 1)
- ASSAY_OVERVIEW: PRMT1 binders on small-molecule microarrays, primary screen, biochemical, small-molecule microarray, 635 nm fluorescence (AID 1088);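 note: binding of Prmt1 protein to compounds spotted on small-molecule microarray slides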
- TEST_CONDITIONS: small-molecule microarray binding, higher = more signal
READOUT_NAME: composite z-score
Number only, please.

>  <COMPOUND>
CN1C(=O)C2C=CC(C(O)c3ccc(I)cc3)N(N3CCCCC3)C2C1=O (stereo not drawn)

>  <TARGET_DESC>
PRMT1 (protein arginine N-methyltransferase 1)

>  <composite z-score>
1.55

$$$$

Input: Provide composite z-score value for the following compound: O=C1[C@H]2C=C(Br)[C@H](C[C@@H]2OCCCCO)[C@@]12CO2
Output: -0.162

Input: // Input: [N-]=[N+]=Nc1ccccc1C[C@]1(C(N)=O)N=C(c2ccc(OCCCO)cc2)O[C@H]1c1ccccc1 . Output its composite z-score only.
Output: 0.203

Input: Please report composite z-score for the following compound: C=CCC(OC(C)=O)[C@@H]1[C@@H](N(Cc2ccc(-c3cccc(C(F)(F)F)c3)o2)C(=O)Cc2ccc(F)cc2)c2cc(OCCCO)ccc2N1C(=O)Cc1ccc(OC)cc1 (stereo partly drawn)
Output: -2.39

Input: Read off the recorded composite z-score for COC(=O)[C@@]1(Cc2ccc(OC)cc2)[C@H]2c3cc(C(=O)N4CCCC4)n(Cc4ccc(OC)c(OC)c4)c3C[C@H]2CN1C(=O)c1ccccc1
Output: 0.929

====

Catalogue of z-score values
- ASSAY_OVERVIEW: PSAC antagonists in infected red cells, primary screen, cell-based, P. falciparum Indochina, OD700, 18 h (AID 1157)
- TEST_CONDITIONS: P. falciparum Indochina infected erythrocytes, osmotic lysis OD700, 18 h; higher = more signal, called active from +8 up or from −8 down
Number only, no unit.

Illustrative cases are given below, each with its answer.
>  <COMPOUND>
CC(C)[C@@H](CO)NC(=O)[C@H]1[C@@H](c2ccccc2)N(c2ccccc2)O[C@@H]1C

>  <z-score>
-0.0146

$$$$
>  <COMPOUND>
O=C1O[C@@H](c2ccccc2)[C@@H](c2ccccc2)N2[C@@H](c3ccc(OCCO)cc3)[C@]3(C(=O)Nc4ccccc43)[C@@H](C(=O)NC[C@H](O)c3ccccc3)[C@H]12

>  <z-score>
0.779

$$$$
>  <COMPOUND>
C=CCC(OC(C)=O)[C@@H]1[C@@H](N(Cc2ccc(-c3ccccc3)cc2)C(=O)Cc2ccc(F)cc2)c2cc(OCCCO)ccc2N1C(=O)c1ccc(-c2ccccc2)cc1 (some centres undefined)

>  <z-score>
-0.154

$$$$

Input: Please give measured z-score of the following entry: CC(C)N1C(=O)c2ccccc2[C@](C)(C(=O)NCc2ccccc2)[C@@H]1c1ccc(CO)cc1
Output: 0.645

====

- ASSAY_OVERVIEW: Plasmodium falciparum growth inhibition, primary screen, strain 3D7, DAPI fluorescence, 100 nL (AID 1184);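 note: parasites grown inside human red blood cells in medium with human serum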
- TEST_CONDITIONS: P. falciparum 3D7 growth, 3 d, higher = more signal
Here, each record is paired with measured z-score data.
API note: the answer field is a bare number with no unit suffix.

Worked set:
>  <MOLECULE>
O=C1C2C=CC(C(O)C(c3ccccc3)c3ccccc3)N(n3cnnc3)C2C(=O)N1Cc1ccccc1 (stereo not drawn)

>  <READOUT_NAME>
z-score

>  <OBSERVED_MEASUREMENT>
-0.528

$$$$
>  <MOLECULE>
CCCCCN1CC=CC23O[C@@H]4/C=C\CCCOC(=O)C4[C@H]2C(=O)N(C(CO)C(C)C)[C@@H]3C1=O (stereo partly drawn)

>  <READOUT_NAME>
z-score

>  <OBSERVED_MEASUREMENT>
0.609

$$$$

Consider the additional molecule presented here.
Input: Report measured z-score; entry is C=CCOC(=O)[C@H]1[C@@H]2C(=O)O[C@@H](c3ccccc3)[C@@H](c3ccccc3)N2[C@@H](c2ccc(OCCOC(=O)[C@@H]3C[C@@H]4C(=O)N[C@@H](CCCC[N+](C)(C)C)C(=O)N4[C@@H]3c3ccc(O)cc3)cc2)[C@]12C(=O)Nc1ccccc12
Output: 0.327
